System: L1210 cells
Assay: Metabolic transformation of polyamine analogues by L1210 cells
Format: in vitro ADME, murine
Conditions: 48 hours, 500 μM analogue
Where a name gives a salt, the structure may show the parent alone.
measure: Parent drug as % of total drug in the cell (%)

CCNCCCNCCCNCC [DENSPD, Trihydrochloride]; 90.7
CCCNCCCCCNCCCCCNCCC [DP(5,5), Trihydrochloride]; 100
CCNCCCNCCCNCCCNCC [DENSPM, N^1,N^11-diethylnorspermine]; 95.3
CCCNCCCCNCCCCNCCC [DPHSPD, Trihydrochloride]; 87.7

====

System: spermidine/spermine acetyltransferase (SSAT)
Assay: SSAT activity in treated L1210 cells
Assay type: cell-based, murine
Conditions: L1210, 10 μM at 48 hours (triamine analogues)
Where a name gives a salt, the structure may show the parent alone.
SSAT activity, percent of untreated control: recorded values

Take a look at these entries with their results.
NCCCCNCCCN; 160% of untreated control
CCCNCCCNCCCNCCC [DPNSPD, Trihydrochloride]; 220% of untreated control

GET /values?readout=SSAT activity, percent of untreated control&item= CCCNCCCCNCCCCN [MPHSPD, Trihydrochloride]
570% of untreated control

GET /values?readout=SSAT activity, percent of untreated control&item= CCNCCCCCNCCCCCNCC [DE(5,5), Trihydrochloride]
90% of untreated control

GET /values?readout=SSAT activity, percent of untreated control&item= CNCCCCCNCCCCNC [DM(4,5), Trihydrochloride]
130% of untreated control

GET /values?readout=SSAT activity, percent of untreated control&item= CNCCCCNCCCNC [DMSPD, Trihydrochloride]
270% of untreated control

====

pKi: recorded values
Test system: polyamine transport apparatus
Experiment: Competitive uptake determination: inhibition of [3H]spermidine transport into L1210 cells
Format: cell-based, murine
Conditions: analogue inhibition of spermidine transport
Please express pKi as -log10 of the molar concentration.

GET /values?readout=pKi&item= NCCCCNCCCN
5.66

====

Test system: L1210 cells
Experiment: Metabolic transformation of polyamine analogues by L1210 cells
Type: in vitro ADME, murine
Conditions: 48 hours, 100 μM analogue
Where a name gives a salt, the structure may show the parent alone.
measure: Parent drug as % of total drug in the cell (%)

CCNCCCCCNCCCCNCC [DE(4,5), 3,8,14-Triazahexadecane Trihydrochloride]; 100
CCCNCCCNCCCNCCCNCCC; 78.2

A: CNCCCCNCCCCNC [DMHSPD, Trihydrochloride]
B: CCCNCCCCCNCCCCNCCC [DP(4,5), 4,9,15-Triazaoctadecane Trihydrochloride]
Please let me know which one, A or B , has a lower measured Parent drug as % of total drug in the cell value. Mark your selection by writing its label.
B
(B: 69.7%, A: 100%)

====

Assay: Acute toxicity in mice (single i.p. dose)
Assay type: in vivo
Details: female, CD-1, mouse, in vivo, ip; mice, single dose i.p., scored two hours after dose, hydrochloride salts; read-out: Acute LD50
Counter-ions that a name gives are not always drawn.
measure: LD50 at 2 h (mg/kg)
State the answer as a number, implicitly in mg/kg.

CCNCCCCCNCCCCNCCCCCNCC.Cl.Cl.Cl.Cl; 195
CCNCCCCCNCCCCCNCC [DE(5,5), Trihydrochloride]; 500

Let's switch to this molecule now.
GET /values?readout=LD50 at 2 h&item= CCNCCCCCNCCCCNCC [DE(4,5), 3,8,14-Triazahexadecane Trihydrochloride]
555
